target or system: rat TRPV1 (Rattus norvegicus)
Sequence (O35433 whole entry): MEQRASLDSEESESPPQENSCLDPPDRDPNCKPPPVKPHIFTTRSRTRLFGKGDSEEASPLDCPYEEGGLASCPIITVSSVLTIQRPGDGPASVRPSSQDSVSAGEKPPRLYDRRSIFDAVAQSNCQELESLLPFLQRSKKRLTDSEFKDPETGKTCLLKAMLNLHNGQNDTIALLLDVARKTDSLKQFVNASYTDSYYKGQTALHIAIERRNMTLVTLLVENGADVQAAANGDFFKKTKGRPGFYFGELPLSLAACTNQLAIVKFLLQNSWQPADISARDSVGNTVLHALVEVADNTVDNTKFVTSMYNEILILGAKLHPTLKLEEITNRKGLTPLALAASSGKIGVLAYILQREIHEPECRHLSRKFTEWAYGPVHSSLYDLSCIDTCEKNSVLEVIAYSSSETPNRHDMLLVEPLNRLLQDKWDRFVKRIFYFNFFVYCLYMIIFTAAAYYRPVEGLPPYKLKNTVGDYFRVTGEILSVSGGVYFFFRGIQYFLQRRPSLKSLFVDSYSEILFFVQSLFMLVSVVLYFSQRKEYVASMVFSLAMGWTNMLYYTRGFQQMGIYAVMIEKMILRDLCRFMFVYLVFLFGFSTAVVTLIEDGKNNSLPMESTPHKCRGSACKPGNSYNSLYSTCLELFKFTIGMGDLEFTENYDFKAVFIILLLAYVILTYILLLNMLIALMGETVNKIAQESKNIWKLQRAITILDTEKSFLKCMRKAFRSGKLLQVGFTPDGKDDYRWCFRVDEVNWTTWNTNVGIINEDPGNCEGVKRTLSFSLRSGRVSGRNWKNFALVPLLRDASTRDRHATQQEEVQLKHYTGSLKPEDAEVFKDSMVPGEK
experiment: Functional assay: block of capsaicin-induced Ca2+ influx, rat assay (FLIPR, rTRPV1/HEK293)
condition details: rTRPV1/HEK293 cells, capsaicin challenge, mean; > value = solubility limit in assay medium
measured parameter: pIC50
One number for each entry, as −log10 of the molar value.

[
  {
    "compound": "FC(F)(F)c1ccc(Nc2ncnc3[nH]c(Nc4ccccc4C(F)(F)F)nc23)cn1 [Example 9]",
    "pIC50": 5.98
  }
]

Please state pIC50 for every compound in the list that follows.
1. FC(F)(F)c1ccc(Nc2ncnc3[nH]c(Nc4c(Cl)cccc4Cl)nc23)cc1 [Example 1]
2. CC(C)(C)c1ccc(Nc2ncnc3[nH]c(Nc4c(Cl)cccc4Cl)nc23)cc1 [Example 3]
3. Cc1nc(Nc2ccc(C(F)(F)F)cc2)c2nc(Nc3c(Cl)cccc3Cl)[nH]c2n1 [Example 6]
4. Clc1cccc(Cl)c1Nc1nc2c(Nc3ccccc3)ncnc2[nH]1 [Example 4]
5. FC(F)(F)c1ccc(Nc2ncnc3[nH]c(Nc4ccccc4C(F)(F)F)nc23)cc1 [Example 8]
6. Cn1c(Nc2c(Cl)cccc2Cl)nc2c(Nc3ccc(C(F)(F)F)cc3)ncnc21 [Example 10]
7. CS(=O)(=O)c1ccc(Nc2ncnc3[nH]c(Nc4c(Cl)cccc4Cl)nc23)cc1 [Example 5]
8. FC(F)(F)c1ccc(Nc2ncnc3[nH]c(Nc4c(Cl)cccc4Cl)nc23)cn1 [Example 2]

1: 8.31; 2: 9.82; 3: 8.52; 4: 5.76; 5: 6.00; 6: 5.95; 7: 7.74; 8: 7.72
